target: 20S proteasome β2 trypsin-like activity (VGR-MCA) (Homo sapiens, UniProt P49720+Q99436); construct: Proteasomes were isolated from red blood cells; test: Protease assay, trypsin-like activity of isolated 20S proteasomes; settings: isolated 20S proteasome; VGR-MCA 50 μM; 15 min pre-incubation; read-out: IC50 β2 Trypsin-like (R)
Where a SMILES comes first, the peptide text is derived from it. [ ]: non-standard residue; d: D form. The star is where a group is joined. Leu(ol) = CC(C)C[C@H](N)CO; Cbz = O=C(OCc1ccccc1)*; OtBu = CC(C)(C)O*
Recorded pIC50 by entry
Value format note: pIC50 is -log10 of concentration (mol/L); just state the number.

Example cases with answers are listed next.
Fill in: 20S proteasome β2 trypsin-like activity (VGR-MCA) (Homo sapiens, UniProt P49720+Q99436) pIC50 for CC(C)C[C@@H](C=O)NC(=O)[C@H](CC(C)C)NC(=O)[C@H](CC(C)C)NC(=O)OCc1ccccc1 [Compound 3, reference compound] (Cbz-Leu-Leu-Leu-aldehyde) = 5.04

Record CC(C)CC(C=O)NC(=O)C(CC(=O)OC(C)(C)C)NC(=O)C(CC(C)C)NC(=O)OCc1ccccc1 (stereo not drawn) [Compound 15, Z-Leu-Asp(O^tBu)Leu-CHO] (Cbz-Leu-Asp(OtBu)-Leu-aldehyde; configuration not given here) ; system 20S proteasome β2 trypsin-like activity (VGR-MCA) (Homo sapiens, UniProt P49720+Q99436); pIC50 = 6.81

Okay, next one:
Considering CC(C)C[C@@H](CO)NC(=O)[C@H](CC(=O)OC(C)(C)C)NC(=O)[C@H](CC(C)C)NC(=O)OCc1ccccc1 [Compound 8] (Cbz-Leu-Asp(OtBu)-[Leu(ol)]) , its pIC50 with 20S proteasome β2 trypsin-like activity (VGR-MCA) (Homo sapiens, UniProt P49720+Q99436) was recorded as 5.26
